Assay: reversal of MRP1-mediated doxorubicin resistance, pilot screen, H69AR cells, doxorubicin co-treatment (AID 601)
Details: H69AR cells + 2 uM doxorubicin, CellTiter-Glo, 72 h; at 10 µM; stronger effect = higher value
Below, each entry is listed alongside its reported differential viability (reversal).
OUTCOME_MEASURE: differential viability (reversal) (%)

1) Cc1cc(=O)n2nc(N3CCCC(C(=O)N4CCN(C)CC4)C3)sc2n1 (stereo unspecified) : 7.05
2) CCOC(=O)c1cccc(NC(=O)CCn2nnc3ccccc32)c1 : 9.72
3) OC(CN1CCOCC1)Cn1c(-c2cccc(Cl)c2)nc2ccccc21 (stereo unspecified) : -47.5
4) COC(=O)CN(c1ccc(F)cc1)S(=O)(=O)c1ccccc1 : -0.7
5) O=S(=O)(c1cccs1)N1CCN(Cc2nc3ccccc3s2)CC1 : -16.2
6) Cc1ccc(S(=O)(=O)N2CCN(S(=O)(=O)N(C)C)CC2)cc1 : 8.38
7) COc1cc(CC(=O)Oc2ccc3c(c2)OCO3)cc(OC)c1OC : 0.695
8) COc1ccc(-n2ncc3c(NCc4cccs4)ncnc32)cc1 : 17.6
9) Cc1cccc(CC2CC(=O)N(c3ccccc3)C2=O)c1 (stereo unspecified) : 10.5
10) CC(=Nc1cccc(O)c1)c1sc2ccccc2c1O : -38.1
11) CC(=O)N1CCc2cc(S(=O)(=O)CCC(=O)Nc3cccc(F)c3)ccc21 : 13.1

---

Experiment: reversal of MRP1-mediated doxorubicin resistance, pilot screen, H69AR cells, doxorubicin co-treatment (AID 601)
Settings: H69AR cells + 2 uM doxorubicin, CellTiter-Glo, 72 h; at 10 µM; stronger effect = higher value
The source made the active and inactive calls.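 The calls were made as follows: active = viability loss from added drug above about 55%, and viability with drug at most 40%, in both replicates (limit read from the data, passing the limit was not always enough); inconclusive = both conditions met in only one replicate; inactive = neither replicate meets both conditions.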
Below, each entry is listed alongside its reported differential viability (reversal).
OUTCOME_MEASURE: differential viability (reversal)

1) CCn1nnnc1SCC(=O)Nc1nc(-c2cccs2)cs1 : 18.2% (inactive)
2) CCN(CC)C(=O)c1sc2nc(-c3cccs3)cc(-c3cccs3)c2c1N : -12.7% (inactive)
3) Cc1cc(NS(=O)(=O)c2ccc(N)cc2)no1 : -12.6% (inactive)
4) Clc1ccc(OCc2nnc(SCCN3CCCCC3)n2Cc2ccco2)cc1 : -4.72% (inactive)
5) COc1ccc(OC)c(NC(=O)CCNS(=O)(=O)c2cccs2)c1 : 5.6% (inactive)
6) Cc1ccc(Cl)c(Nc2ccccc2C(=O)O)c1Cl : -6.54% (inactive)
7) CC(C)OC(=O)c1cccc(C(=O)O)n1 : 1.99% (inactive)
8) Cc1cc(S(=O)(=O)N2CCN(c3ccccc3C)CC2)ccc1F : -0.315% (inactive)
9) Cc1cc2c(c(=O)o1)C(C13C=CC(CC1)C3)C(C#N)=C(N)O2 (centres undefined) : 13.2% (inactive)
10) C=C(C)Cn1c(CCCNC(=O)C(C)(C)C)nc2ccccc21 : 0.305% (inactive)
11) CCN(CC)CCOC(=O)C1(c2ccc(OC)c(OC)c2)CCCC1 : 2.25% (inactive)
12) CC[C@]1(O)C[C@@H]2CN(CCc3c([nH]c4ccccc34)[C@@](C(=O)OC)(c3cc4c(cc3OC)N(C)[C@H]3[C@@](O)(C(=O)OC)[C@H](OC(C)=O)[C@]5(CC)C=CCN6CC[C@]43[C@@H]65)C2)C1 : -38.2% (inactive)
13) COc1ccc(-c2cc3c(=O)n(CC(=O)NC4CCN(Cc5ccccc5)CC4)ncn3n2)cc1 : -0.715% (inactive)
14) CCOC(=O)Cn1nnnc1CN(Cc1ccc(OC)cc1)Cc1cc2cc(C)cc(C)c2[nH]c1=O : 15.2% (inactive)
15) CCOC(=O)CSc1nc2sc(C)c(C)c2c(=O)[nH]1 : -15.3% (inactive)
16) CCN(CC)c1nc(N(CC)CC)[nH]c(=O)n1 : 2.19% (inactive)
17) O=C(CCNC(=O)Cn1ccc2ccccc2c1=O)NCCN1CCN(c2ccccc2F)CC1 : 9.11% (inactive)
18) O=C(NC1CCCCCC1)C1CCCN(S(=O)(=O)c2cccs2)C1 (centres undefined) : 17.6% (inactive)
19) COCCN1CN(S(=O)(=O)c2ccccc2)c2nc3ccccc3nc21 : -2.97% (inactive)
20) Cc1ccc(NC(=O)CSC2=C(C#N)C(c3ccc4c(c3)OCO4)CC(=O)N2)cc1C (centres undefined) : -4.82% (inactive)
21) Cc1ccc(-c2nc(N)n(C(=O)c3cccnc3)n2)cc1 : 19.1% (inactive)
22) CN(C)C(=O)Oc1ccc[n+](C)c1 : 5.36% (inactive)
23) Cc1cc(C)n2nc[n+](C)c2n1 : 11.4% (inactive)
24) COCCNC(=O)c1c(N)n(/N=C/c2cccs2)c2nc3ccccc3nc12 : 0.24% (inactive)
25) CC1(C)CC(=O)C2=C(C1)N(Cc1ccco1)C(=O)C2(NC(=O)C1CCCCC1)C(F)(F)F (centres undefined) : 10.7% (inactive)
26) CCOc1ccc2[nH]cc(C(=O)N3CCN(CC)CC3)c(=O)c2c1 : -14.2% (inactive)
27) COCCn1c(CN2CCN(c3ccccc3F)CC2)nc2c1c(=O)n(C)c(=O)n2C : 0.255% (inactive)
28) COc1ccccc1C1N(c2ccc(F)cc2)C(=O)C2CCCN21 (centres undefined) : 17.8% (inactive)
29) COc1ccc(Cc2nc3ccc(S(N)(=O)=O)cc3[nH]2)cc1OC : 14.6% (inactive)
30) Cc1cccc(-n2ncc3c(NCc4ccccn4)ncnc32)c1 : 1.75% (inactive)
31) CCn1c(SCC(=O)Nc2ccc(C(=O)OC)cc2)nnc1-c1cccs1 : 5.75% (inactive)
32) NC(N)=NC(N)=NCCc1ccccc1 : -0.22% (inactive)
33) CC(=O)OCC(=O)[C@H]1CC[C@H]2[C@@H]3CCC4=CC(=O)CC[C@]4(C)[C@H]3CC[C@]12C : -0.2% (inactive)
34) CCCc1nc(NCc2ccncc2)c2nnn(Cc3ccccc3F)c2n1 : 8.61% (inactive)
35) Cc1ccc(-c2nc3cc(NC(=O)C(C)C)ccc3o2)cc1C : 2.97% (inactive)
36) COc1cccc(CC(=O)Nn2c(C)nc3ccccc3c2=O)c1 : 11.8% (inactive)
37) CC(=O)Nc1cccc(NC(=O)CSc2nnnn2C(C)C)c1 : 14.7% (inactive)
38) O=C(c1ccco1)N1CCN(CCCCN2C(=O)c3ccccc3C2=O)CC1 : -12.3% (inactive)
39) CC(C)(C)c1ccc(-c2nnc(SCCC#N)n2C2CCCC2)cc1 : 18.4% (inactive)
40) COc1ccc(C(=O)Nc2cccnc2)cc1C(=O)Nc1cccnc1 : 2.72% (inactive)
41) COc1cc2cc(C(c3nnnn3C3CCCC3)N(C)C3CCCCC3)c(=O)[nH]c2cc1OC (centres undefined) : -4.31% (inactive)
42) Cc1ccc2c(c1)CCCN2C(=O)C1CCCO1 (centres undefined) : 14.6% (inactive)
43) Cc1ccc(S(=O)(=O)N2CCN(C(=O)N3CCOCC3)C2c2ccc(N(C)C)cc2)cc1 (centres undefined) : 5.79% (inactive)
44) CSC1=C(C#N)C(c2ccc(C)cc2)C2=C(CCCC2=O)N1 (centres undefined) : 10.1% (inactive)

---

Experiment: reversal of MRP1-mediated doxorubicin resistance, pilot screen, H69AR cells, doxorubicin co-treatment (AID 601)
Conditions: H69AR cells + 2 uM doxorubicin, CellTiter-Glo, 72 h; measured here: viability with 2 uM doxorubicin; at 10 µM; stronger effect = lower value
Label 1 (yes) when viability is strictly below 90%; at or above that, label 0 (no).

1. Oc1c(Cl)cc(Cl)cc1Sc1cc(Cl)cc(Cl)c1O : 1 (yes)
2. Cn1c(=O)n(CCN2CCOCC2)c(=O)c2c1nc1n2CCN1c1ccccc1 : 1 (yes)
3. CNCCCC1c2ccccc2C=Cc2ccccc21 : 1 (yes)
4. Oc1ccc(N2CCN(C(c3cccnc3)c3nnnn3Cc3ccccc3)CC2)cc1 (stereo not drawn) : 0 (no)
5. CC(=O)O[C@H]1C[C@@H]2CC[C@@H]3[C@H](CC[C@@]4(C)[C@H]3C[C@H]([N+]3(C)CCCCC3)[C@@H]4OC(C)=O)[C@@]2(C)C[C@@H]1[N+]1(C)CCCCC1 : 0 (no)
6. CCOc1ccc(-c2nc(C#N)c(N3CCN(C)CC3)o2)cc1 : 0 (no)
7. CC(=O)c1ccccc1NS(=O)(=O)c1c(C)nn(-c2ccccc2)c1C : 0 (no)
8. CCCc1c(OCCCCc2nn[nH]n2)ccc(C(C)=O)c1O : 0 (no)
9. CCOC(=O)c1cc(-c2nnc(-c3ccc(Oc4ccccc4)cc3)o2)c(C)nc1C : 1 (yes)
10. CC(C)(C)c1ccc(O)c(N)c1 : 0 (no)
11. CCCC(=O)N1CCN(c2ccc(NC(=O)c3ccc(Br)o3)cc2)CC1 : 0 (no)
12. COc1ccccc1CNC(=O)Nc1cccs1 : 1 (yes)
13. Nc1nc(-c2ccc(Cl)cc2)nn1C(=O)c1cccnc1 : 0 (no)
14. O=C(COc1ccccc1)Nc1ccccc1N1CCN(c2ccccc2)CC1 : 1 (yes)
15. CCCC(CCC)C(=O)NCCN1CCOCC1 : 1 (yes)
16. O=C1NCCCc2c1no[n+]2[O-] : 0 (no)
17. CC(C)n1c(NCc2c[nH]c3ccccc23)nc2ccccc21 : 1 (yes)
18. Cn1c(Cl)cnc1C1CC(=O)c2cc(Cl)ccc2O1 (stereo not drawn) : 1 (yes)
